# Target System: T1, GRIP1_1, Q9Y3R0
# T1 sequence (Q9Y3R0 48-146, limits assumed, looked up): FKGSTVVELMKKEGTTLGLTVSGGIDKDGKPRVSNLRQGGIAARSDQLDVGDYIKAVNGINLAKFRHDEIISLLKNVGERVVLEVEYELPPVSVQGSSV
# Protocol Description: holdup assay
# Design: key: below the threshold = too weak to quantify, mostly under pKd 3.1 to 4
# Condition Parameters: plain residues with an end cap or a label only (N-terminal biotin on a linker: ttds)
Quantity Kind: pKd

SKPTRRETEV [HPV35-E6, P27228] :: below the threshold
RHTTSTETAV [HPV30-E6, P36809] :: 4.59
RLQRRRETQV [HPV18-E6, P06463] :: below the threshold
RLPKIKETTV [FRMPD4, Q14CM0] :: below the threshold

Entry source: paper PMC9482650
